- target: T1, recombinant human IL4Rα-his protein (in house made) (human, UniProt P24394 26-232, limits assumed)
- T1 construct: also called Human IL4Ra-his
- assay_name: competitive ELISA, blocks biotin-IL4 binding to coated IL4Rα-his
property_name: IC50

// solved cases for IC50 follow
stdin: Please report the recorded IC50 for mouse antibody B9D1D11F8D8 (antibody, V domains shown, Mouse hybridoma mAb) VH: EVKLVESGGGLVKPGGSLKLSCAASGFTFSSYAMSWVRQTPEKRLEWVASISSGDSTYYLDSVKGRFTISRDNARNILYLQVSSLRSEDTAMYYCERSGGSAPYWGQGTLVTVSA VL: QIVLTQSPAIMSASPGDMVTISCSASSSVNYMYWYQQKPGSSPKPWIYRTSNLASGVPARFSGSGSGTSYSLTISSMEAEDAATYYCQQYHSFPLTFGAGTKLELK .
stdout: 2.88 nM

stdin: Please report the recorded IC50 for mouse antibody C2B2F7B7 (antibody, V domains shown, Mouse hybridoma mAb) VH: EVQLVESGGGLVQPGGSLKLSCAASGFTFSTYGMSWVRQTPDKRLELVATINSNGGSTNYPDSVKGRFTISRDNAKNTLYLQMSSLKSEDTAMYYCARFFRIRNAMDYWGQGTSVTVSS VL: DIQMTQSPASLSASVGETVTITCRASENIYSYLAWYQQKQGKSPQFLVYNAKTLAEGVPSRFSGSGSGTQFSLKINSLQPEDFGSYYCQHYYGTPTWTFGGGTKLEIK .
stdout: 0.73 nM

stdin: Please report the recorded IC50 for mouse antibody B8G11F2B7G5E8 (antibody, V domains shown, Mouse hybridoma mAb; also called Mouse B8G11F2B7G5E8; mAb B8G11F2B7G5E8) VH: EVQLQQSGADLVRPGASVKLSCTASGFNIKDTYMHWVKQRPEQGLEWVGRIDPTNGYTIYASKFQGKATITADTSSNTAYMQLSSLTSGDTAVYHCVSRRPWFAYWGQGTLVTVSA VL: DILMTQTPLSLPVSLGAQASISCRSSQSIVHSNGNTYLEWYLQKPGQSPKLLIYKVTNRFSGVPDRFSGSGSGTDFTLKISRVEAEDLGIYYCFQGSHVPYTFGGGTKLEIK .
stdout: 0.81 nM

stdin: Please report the recorded IC50 for mouse antibody C2C1A1A1 (antibody, V domains shown, Mouse hybridoma mAb; also called Mouse C2C1A1A1) VH: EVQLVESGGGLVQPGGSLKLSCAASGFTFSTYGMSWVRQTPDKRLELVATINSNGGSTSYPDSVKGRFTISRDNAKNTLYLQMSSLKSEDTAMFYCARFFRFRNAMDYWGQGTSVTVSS VL: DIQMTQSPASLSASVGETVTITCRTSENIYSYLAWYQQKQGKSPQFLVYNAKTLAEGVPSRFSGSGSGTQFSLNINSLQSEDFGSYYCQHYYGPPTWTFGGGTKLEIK .
stdout: 0.81 nM

Next, consider the following binder.
stdin: Please report the recorded IC50 for mouse antibody B1D2F7D3B5 (antibody, V domains shown, Mouse hybridoma mAb) VH: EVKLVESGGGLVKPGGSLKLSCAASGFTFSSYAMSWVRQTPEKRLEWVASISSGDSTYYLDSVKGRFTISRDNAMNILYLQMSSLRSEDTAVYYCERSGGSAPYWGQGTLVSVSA VL: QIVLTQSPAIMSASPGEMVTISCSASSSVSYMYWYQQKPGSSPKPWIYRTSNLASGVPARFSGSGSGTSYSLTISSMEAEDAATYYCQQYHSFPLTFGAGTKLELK .
stdout: 1.8 nM

Origin of measurements: patent US20230105029A1
